B1: Ankyrin-3, residues 4094 to 4171; numbered along this chain, Q12955 (parent)
chain: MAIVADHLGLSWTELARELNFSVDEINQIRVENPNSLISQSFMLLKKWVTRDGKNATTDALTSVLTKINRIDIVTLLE

Variants of: B1
Assay: abundance fitness (aPCA) (normalised: wild type 0, dead -1); higher = more abundant; growth selection in yeast, the domain comes from the species named
Settings: Homo sapiens
Lab note: compare abundance fitness against -0.2. Equal or greater, write Y. Smaller, write N.

Some solved cases for reference:
- V4F: N
- L45V: N
- N55L: Y
- G9Y: N
- D52E: Y

Reported abundance fitness at or above -0.2? `R70M` N

Reported abundance fitness at or above -0.2? `I68K` N

Reported abundance fitness at or above -0.2? `P34T` N

Reported abundance fitness at or above -0.2? `T75M` Y

Reported abundance fitness at or above -0.2? `W12P` N
